- Tested on: E. coli
- Construct: DSM 301
- PROCEDURE TEXT: microbe, parasite or virus in culture
- Design: Microbial growth in liquid dilution assay, OD600 relative to DMSO control
- CONDITION DESCRIPTION: Escherichia coli; estimated IC50; read-out: E. coli, IC50 (µM) estimate
Measured IC50 by item

>  <COMPOUND>
CCc1nnc(NS(=O)(=O)c2ccc(NC(=O)COc3ccc4ccccc4c3)cc2)s1 [c5v]

>  <TARGET DESC>
E. coli

>  <OBSERVED>
> 30 µM

$$$$

Consider now this further compound.
Any idea what its IC50 is? The compound is CNC(=S)N1CCN(c2nsc3ccccc23)CC1 [c6e]
> 30 µM

----------
- PROCEDURE TEXT: in vitro
- Parameters: Viability of infected HeLa host cells, resazurin conversion, bulk resorufin fluorescence relative to DMSO
- CONDITION DESCRIPTION: human, hela cells; bulk resorufin, mean of 2
MEASUREMENT NAME: viability at 28.5 h, 10 µM (%)
Hi! Could you send only the number? It should be in %, unit omitted.

Solved entries:
>  <COMPOUND>
COc1cc(C=C2SC(NCC(=O)O)=NC2=O)ccc1OCc1ccc(Cl)cc1Cl

>  <MEASUREMENT NAME>
viability at 28.5 h, 10 µM

>  <DISPLAY UNIT>
%

>  <OBSERVED>
88.9

$$$$
>  <COMPOUND>
c1ccc2c3c([nH]c2c1)C1(CCN(CCC2CCCCC2)C1)OCC3 (stereo not shown)

>  <MEASUREMENT NAME>
viability at 28.5 h, 10 µM

>  <DISPLAY UNIT>
%

>  <OBSERVED>
84.9

$$$$
>  <COMPOUND>
COc1cccc(C(=O)/C=C\Nc2ccc(S(=O)(=O)Nc3onc(C)c3C)cc2)c1

>  <MEASUREMENT NAME>
viability at 28.5 h, 10 µM

>  <DISPLAY UNIT>
%

>  <OBSERVED>
114

$$$$
>  <COMPOUND>
OC(CN1CCN(Cc2ccccc2)CC1)Cn1c2ccc(Br)cc2c2cc(Br)ccc21 (stereo not shown)

>  <MEASUREMENT NAME>
viability at 28.5 h, 10 µM

>  <DISPLAY UNIT>
%

>  <OBSERVED>
90

$$$$
>  <COMPOUND>
N#CC(CCCN1CCN(c2ccccc2)CC1)(c1ccccc1)c1ccccc1 [CBK002243C]

>  <MEASUREMENT NAME>
viability at 28.5 h, 10 µM

>  <DISPLAY UNIT>
%

>  <OBSERVED>
118

$$$$
>  <COMPOUND>
CN1CCCN(c2ccc(NS(=O)(=O)c3cccc(F)c3)c3ccccc23)CC1 [CBK200010C]

>  <MEASUREMENT NAME>
viability at 28.5 h, 10 µM

>  <DISPLAY UNIT>
%

>  <OBSERVED>
95.1

$$$$
>  <COMPOUND>
CCCCC(=O)/N=C(\N)Nc1nc2ccccc2o1

>  <MEASUREMENT NAME>
viability at 28.5 h, 10 µM

>  <DISPLAY UNIT>
%

>  <OBSERVED>
100

$$$$
>  <COMPOUND>
CCCN(CCC)CCc1cccc2c1CCN2C(=O)c1cc2ccccc2s1 [CBK017871C]

>  <MEASUREMENT NAME>
viability at 28.5 h, 10 µM

>  <DISPLAY UNIT>
%

>  <OBSERVED>
97.3

$$$$
>  <COMPOUND>
C/C(Nc1ccc(S(=O)(=O)Nc2nccc(C)n2)cc1)=C1\C(=O)N(c2nc3ccccc3s2)N=C1C(F)(F)F

>  <MEASUREMENT NAME>
viability at 28.5 h, 10 µM

>  <DISPLAY UNIT>
%

>  <OBSERVED>
88.6

$$$$
>  <COMPOUND>
CC(C)(CN)CN(Cc1ccc(-c2ccccc2)cc1)C(=O)Nc1ccccc1C(C)(C)C [CBK002476C]

>  <MEASUREMENT NAME>
viability at 28.5 h, 10 µM

>  <DISPLAY UNIT>
%

>  <OBSERVED>
63.6

$$$$

Give its viability at 28.5 h, 10 µM value. Item: O=C(CC1SC(Nc2ccc(O)cc2)=NC1=O)c1ccccc1 (stereo not shown)
107

viability at 28.5 h, 10 µM lookup needed for CC(Oc1cccc2ccccc12)C(=S)N(C)c1ccccc1 (stereo not shown) , thanks.
107

For COc1ccccc1N/C(=N\OCc1ccc(Cl)cc1Cl)c1nonc1N , what is its reported viability at 28.5 h, 10 µM?
94.7

Field request: viability at 28.5 h, 10 µM | item: CCn1c2c(c3cc(S(=O)(=O)c4ccc(C(F)(F)F)cc4)ccc31)CCNCC2 [CBK018453C]
91.9

Entry under review: CCc1nnc(NS(=O)(=O)c2ccc(N/C=C\C(=O)c3ccc4ccccc4c3)cc2)s1 . Reported viability at 28.5 h, 10 µM?
88.7

So what does the record say about viability at 28.5 h, 10 µM for CN(C)c1ncc(-c2cccc(Cl)c2)c(C2CCCN2C(=O)CC2CCCC2)n1 (stereo not shown) ?
110

Report viability at 28.5 h, 10 µM for COc1ccc(OC)c(Nc2nc(NCC3CCCO3)c3ccccc3n2)c1 (stereo not shown) [CBK268403C] please.
99.1

Name the reported viability at 28.5 h, 10 µM value associated with the compound Cc1nc(C(=N)N)nc2ccccc12 [CBK010368C]
88.2

Which viability at 28.5 h, 10 µM value belongs to O=C(O)c1cn(C2CC2)c2cc(N3CCN(C(=O)Cc4ccccc4Cl)CC3)c(F)cc2c1=O ?
93.4
